// provenance: the supplement of paper PMC12494721

system: Ruminococcus gnavus DSM 108212; test: fold change of 2-Phenylethylamine concentration vs plate DMSO controls (fold change (ratio)); higher = more amine produced, active = hit call of the paper (significant change in both replicates, either direction); conditions: incubation time: 27 h, anaerobic, 37 °C
Counter-ions that a name gives are not always drawn.
attribute_measured: fold change of 2-Phenylethylamine concentration
One number for each entry.

COc1ccc2[nH]c([S+]([O-])Cc3ncc(C)c(OC)c3C)nc2c1 (centres undefined) [Omeprazole] (20 µM); 1.02
O=S(=O)(O)NC1CCCCC1 [Cyclamic acid] (50 µM); 1.02
CN(C)CCC(c1ccc(Cl)cc1)c1ccccn1 (centres undefined) [Chlorpheniramine maleate] (20 µM); 1.02

Now let's try a different one.
Input CC(C)c1ccc2oc3nc(N)c(C(=O)O)cc3c(=O)c2c1 [Amlexanox] (20 µM) . Output fold change of 2-Phenylethylamine concentration: 1.02

----------
test system: Escherichia coli IAI1; test: growth (OD595) fold change vs plate DMSO controls (fold change (ratio)); higher = more growth; details: incubation time: 27 h, anaerobic, 37 °C
Counter-ions that a name gives are not always drawn.
attribute_measured: growth
Numbers only.

Below are worked cases with known answers.
COc1ccc(NS(=O)(=O)c2ccc(N)cc2)nn1 [Sulfamethoxypyridazine] (20 µM); 1.01
CCc1cccc2c3c([nH]c12)C(CC)(CC(=O)O)OCC3 (stereo not drawn) [Etodolac] (20 µM); 1.03
NCCCCCC(=O)O [Aminocaproic acid] (20 µM); 1.04
OC[C@H]1O[C@H](O[C@H]2O[C@H](CO)[C@@H](O)[C@H](O)[C@H]2O)[C@H](O)[C@@H](O)[C@@H]1O [Trehalose] (50 µM); 1.07
CCCCc1ncc(/C=C(\Cc2cccs2)C(=O)O)n1Cc1ccc(C(=O)O)cc1 [Eprosartan mesylate] (20 µM); 1.06

Dear reader, for each entry below, please note its growth.
1. CS(=O)(=O)CCNCc1ccc(-c2ccc3ncnc(Nc4ccc(OCc5cccc(F)c5)c(Cl)c4)c3c2)o1 [Lapatinib] (20 µM)
2. CN(C)CCC(c1ccc(Br)cc1)c1ccccn1 (stereo not drawn) [Brompheniramine maleate] (20 µM)

RESULT:
[1.05, 1.17]

Record growth for all entries; do not skip any.
1. CN1CCC(=C2c3ccccc3CCc3sccc32)CC1 [Pizotifen malate] (20 µM)
2. CC(C)NC[C@@H](O)COc1cccc2ccccc12 [(R) Propranolol hydrochloride] (20 µM)
3. CC(=O)c1ccc2c(c1)N(CCCN1CCC(CCO)CC1)c1ccccc1S2 [Piperacetazine] (20 µM)
4. O=S(=O)(O)NC1CCCCC1 [Cyclamic acid] (50 µM)
5. CCCCOC(=O)c1ccccc1Nc1cccc(C(F)(F)F)c1 [Ufenamate] (20 µM)
6. NC(N)=Nc1nc(CSCCN/C=N/S(=O)(=O)c2ccc(Br)cc2)cs1 [Ebrotidine] (20 µM)
7. CC(C)Cc1ccc(CC(=O)O)cc1 [Ibufenac] (20 µM)
8. CN1C(C(=O)Nc2ccccn2)=C(O)c2sccc2S1(=O)=O [Tenoxicam] (20 µM)

RESULT:
1: 1.03; 2: 0.856; 3: 0.148; 4: 0.998; 5: 1.07; 6: 1.02; 7: 1.1; 8: 1.04

----------
tested on: Escherichia coli IAI1; assay: fold change of Cadaverine concentration vs plate DMSO controls (fold change (ratio)); higher = more amine produced, active = hit call of the paper (significant change in both replicates, either direction); settings: incubation time: 27 h, anaerobic, 37 °C
Would you mind labelling by fold change of Cadaverine concentration? At or over 1 is Met, under is Not met.

CCN1/C(=C/C=C/C=C/c2sc3ccccc3[n+]2CC)Sc2ccccc21 [Dithiazanine iodide] (20 µM); Met
O=C(Cn1cnnn1)N[C@@H]1C(=O)N2C(C(=O)O)=C(CSc3nncs3)CS[C@H]12 [Ceftezole] (20 µM); Met
c1ccc2c(c1)ccc1ccccc12 [Phenanthrene] (20 µM); Not met

Now for another entry.
QUERY: Dear colleague, could you confirm whether CC(N)(Cc1ccc(O)c(O)c1)C(=O)O (centres undefined) [(L) Methyldopa] (20 µM) has fold change of Cadaverine concentration at or above 1?
RESULT: Not met

----------
Answer each item with its documented fold change of Putrescine concentration.
tested on: Escherichia coli IAI1; assay: fold change of Putrescine concentration vs plate DMSO controls (fold change (ratio)); higher = more amine produced, active = hit call of the paper (significant change in both replicates, either direction); settings: incubation time: 27 h, anaerobic, 37 °C
Structures can show the parent of a compound that is named as a salt.

CC(C)(C(=O)c1cccnc1)c1cccnc1 [Metyrapone] (20 µM); 0.985 (inactive)

Hello, I would appreciate it if you could give fold change of Putrescine concentration for each entry below.
1. CCCSc1ccc2[nH]c(NC(=O)OC)nc2c1 [Albendazole] (20 µM)
2. CN(C)CCN1C(=O)c2ccccc2N(C)c2ccccc21 [Dibenzepine hydrochloride] (20 µM)
3. Cc1cccn2c(=O)c(-c3nnn[nH]3)cnc12 [Pemirolast potassium] (20 µM)
4. CN1[C@@H]2CC[C@H]1C[C@@H](OC(=O)c1c[nH]c3ccccc13)C2 [Tropisetron hydrochloride] (20 µM)

RESULT:
1. 1.01 (inactive)
2. 1.01 (inactive)
3. 0.994 (inactive)
4. 0.982 (inactive)

Briefly, fold change of Putrescine concentration measured for Cc1nc2ccccn2c(=O)c1CCN1CCC(C(=O)c2ccc(F)cc2)CC1 [Pirenperone] (20 µM) : 0.995 (inactive)

----------
Record form. Attribute: fold change of Tryptamine concentration. Fill in for each entry.
tested on: Clostridium sporogenes DSM 1664; assay: fold change of Tryptamine concentration vs plate DMSO controls (fold change (ratio)); higher = more amine produced, active = hit call of the paper (significant change in both replicates, either direction); details: incubation time: 27 h, anaerobic, 37 °C
Structures can show the parent of a compound that is named as a salt.
One number for each entry.

Here are 5 compounds together with their reported answers.
Cc1c(C(=O)NN2CCCCC2)nn(-c2ccc(Cl)cc2Cl)c1-c1ccc(Cl)cc1 [Rimonabant] (20 µM); 0.906
CC(C)(S)C(N)C(=O)O (racemic) [D,L-Penicillamine] (20 µM); 0.993
Cc1cccc(C)c1NC(=O)CN1CCN(CCCC(c2ccc(F)cc2)c2ccc(F)cc2)CC1 [Lidoflazine] (20 µM); 1.04
NS(=O)(=O)c1cc2c(cc1C(F)(F)F)NCNS2(=O)=O [Hydroflumethiazide] (20 µM); 0.92
CCOC(=O)Nc1ccc2c(c1)N(C(=O)CCN1CCOCC1)c1ccccc1S2 [Moricizine hydrochloride] (20 µM); 0.989

For every record below, what is its fold change of Tryptamine concentration?
1. CN[C@@H]1[C@H](O[C@H]2[C@H](O[C@H]3[C@H](O)[C@@H](O)[C@H](NC(=N)N)[C@@H](O)[C@@H]3NC(=N)N)O[C@@H](C)[C@]2(O)CO)O[C@@H](CO)[C@H](O)[C@H]1O [Dihydrostreptomycin sulfate] (20 µM)
2. CN(CCOc1ccc(CC2SC(=O)NC2=O)cc1)c1ccccn1 (stereo unspecified) [Rosiglitazone hydrochloride] (20 µM)

RESULT:
1.25
1.06

Report fold change of Tryptamine concentration for each item below.
1. CCN(CC)CCOC(=O)c1ccc(N)cc1 [Procaine hydrochloride] (20 µM)
2. CN(C)CCC[C@@]1(c2ccc(F)cc2)OCc2cc(C#N)ccc21 [Escitalopram oxalate] (20 µM)

RESULT:
1: 1.04; 2: 0.971

Give me fold change of Tryptamine concentration for each of these compounds, listed below.
1. CC(C)=CCC1C(=O)N(c2ccccc2)N(c2ccccc2)C1=O [Feprazone] (20 µM)
2. CC(C)/N=c1\cc2n(-c3ccc(Cl)cc3)c3ccccc3nc-2cc1Nc1ccc(Cl)cc1 [Clofazimine] (20 µM)

RESULT:
1.02
0.0321

Batch: fold change of Tryptamine concentration for all items listed.
1. CCCCNc1ccc(C(=O)OCCOCCOCCOCCOCCOCCOCCOCCOCCOC)cc1 [Benzonatate] (20 µM)
2. CCCN(CCC)S(=O)(=O)c1ccc(C(=O)O)cc1 [Probenecid] (20 µM)
3. COCCCOc1cc(C[C@@H](C[C@H](N)[C@@H](O)C[C@H](C(=O)NCC(C)(C)C(N)=O)C(C)C)C(C)C)ccc1OC [Aliskiren hemifumarate] (20 µM)
4. NC(=O)c1cnccn1 [Pyrazinamide] (20 µM)
5. Cc1cn(-c2cc(NC(=O)c3ccc(C)c(Nc4nccc(-c5cccnc5)n4)c3)cc(C(F)(F)F)c2)cn1 [Nilotinib] (20 µM)
6. O=C(O)C[C@H](O)C[C@H](O)/C=C/c1c(C2CC2)nc2ccccc2c1-c1ccc(F)cc1 [Pitavastatin calcium] (20 µM)
7. COc1ccc2cc([C@@H](C)C(=O)O)ccc2c1 [(R) Naproxen sodium salt] (20 µM)
8. CCN1CCC[C@H]1CNC(=O)c1c(O)c(Cl)cc(Cl)c1OC [Raclopride] (20 µM)

RESULT:
[0.96, 0.999, 1, 1.04, 1.06, 0.992, 1.07, 1.06]

Quick request: fold change of Tryptamine concentration for each listed item, please.
1. CCCNC(C)(C)C(=O)Nc1ccccc1C [Quatacaine] (20 µM)
2. O=C(Cn1cnnn1)N[C@@H]1C(=O)N2C(C(=O)O)=C(CSc3nncs3)CS[C@H]12 [Ceftezole] (20 µM)

RESULT:
[1.01, 0.0131]
